Assay: solvent given as SMILES
Conditions: in CO
Listing of entries alongside the reported absorption maximum.
attribute-measured: absorption maximum (nm)

>>> test_value("COC(=O)C(NC(=O)OC(C)(C)C)c1ccc2oc(-c3ccc(N(C)C)cc3OC)nc2c1 (stereo not drawn)")
346
>>> test_value("COC(=O)c1nc2cnc(N(C)C)nc2n1Cc1ccccc1")
362
>>> test_value("c1cc2ccc3cccc4ccc(c1)c2c34")
330
>>> test_value("C1=CC2=Nc3cccc[n+]3CN2C=C1")
412
>>> test_value("COC1=[N+]2C(=C(c3ccccc3)c3ccc(OC)n3[B-]2(F)F)C=C1")
511
>>> test_value("CCN(CC)c1ccc2cc(-c3ccc(S(C)(=O)=O)cc3)oc(=O)c2c1")
376
>>> test_value("CCC1=C(C)C2=C(C)c3cc(I)c(I)n3[B-](F)(F)[N+]2=C1C")
518
>>> test_value("CC1(C)C(/C=C/C=C/C=C/C=C2/N(CCCCCC(=O)O)c3ccc(S(=O)(=O)[O-])cc3C2(C)C)=[N+](CCCCCC(=O)O)c2ccc(S(=O)(=O)[O-])cc21")
753
>>> test_value("N#Cc1nc2c(OCc3ccccc3)nc(N)nc2n1Cc1ccccc1")
318
>>> test_value("Clc1nc(Cl)nc(Nc2ccc3ccc4cccc5ccc2c3c45)n1")
340
>>> test_value("CCN(CC)c1ccc(OC)c(C=O)c1")
420
>>> test_value("CC(C)(C)C1Nc2c(Cl)cc(Cl)cc2C(=O)N1Cc1ccccc1 (stereo not drawn)")
367
>>> test_value("C1=CN2C[n+]3ccc4ccccc4c3N=C2c2ccccc21")
453
>>> test_value("CC1(C)CC(/N=C/c2ccc3ccc4cccc5ccc2c3c45)CC(C)(C)N1")
359
>>> test_value("CC(C)c1ccc2ccc3c(C(C)C)ccc4ccc1c2c43")
343
>>> test_value("CCN(CC)c1ccc2cc(-c3csc(NC(C)=O)c3C#N)c(=O)oc2c1")
404
>>> test_value("COc1cc(OC)cc(-c2ccc(-c3ccc(C#N)s3)s2)c1")
364
>>> test_value("CN(C)c1ccc(/C=C/C(=O)c2ccc(Cl)cc2)cc1")
428
>>> test_value("CC1(C)C(/C=C/C2=C(Cl)C(=C/C=C3/N(CCCS(=O)(=O)[O-])c4ccccc4C3(C)C)/CCC2)=[N+](CCCS(=O)(=O)[O-])c2ccccc21")
778
>>> test_value("CC1(C)CC(=O)C2=C(C1)Oc1ccc3cc(O)ccc3c1C2c1ccccn1 (stereo not drawn)")
349
>>> test_value("CCOC(=O)COc1ccc(/C=C/C2=C3c4ccccc4C(c4[nH]c(C)cc4C)=[N+]3[B-](F)(F)n3c(/C=C/c4ccc(OCC(=O)OCC)cc4)cc(C)c32)cc1")
668
>>> test_value("CC[n+]1c(C=C2C(=O)C(C=C3Sc4cc(Cl)ccc4N3C)=C2[O-])[se]c2ccccc21")
658
>>> test_value("CC1(C)CC(=O)C2=C(C1)Oc1ccc3ccc(O)cc3c1C2c1ccccn1 (stereo not drawn)")
341
>>> test_value("CCCCCCCCCCN1C(=O)c2cc(NCCCOCCO)c3c4c(cc(NCCCOCCO)c(c24)C1=O)C(=O)N(CCCCCCCCCC)C3=O")
604
>>> test_value("CCCCCCOc1ccc(-c2cnc(-c3nnc(-c4ccc(OCCCCCC)cc4)o3)o2)cc1")
320
>>> test_value("CC1=C(c2cccs2)C(C)=[N+]2C1=C(c1ccc(O)cc1)c1c(C)c(-c3cccs3)c(C)n1[B-]2(F)F")
521
>>> test_value("CCc1c(C)c2n(c1C)[B-](F)(F)[N+]1=C(NCc3ccc(OC)cc3)C(SC#N)=CC1=C2C")
562
>>> test_value("COc1ccccc1-c1nc(-c2ccc(C(F)(F)F)cc2)n(-c2ccc(C)cc2)c1-c1ccccc1OC")
284
